growth by entry:
Tested on: SK-MEL-5 melanoma
Test: NCI-60 one-dose screen, 48 h (100 = growth as untreated, 0 = no growth, -100 = all killed)
Details: 10 µM unless noted
The panel holds about 83,000 compounds, 20% with a hit somewhere; the sample as a whole holds those more often.
# value in %; strip the unit string

Below: 5 molecules and their reported growth.
# molecule, growth [%]
rows = [
    ("CCOC(=O)/C(=C\\c1ccc2ccccc2c1)P(=O)(OCC)OCC", 44.4),
    ("O=C(/C=C/C(Cl)(Cl)Cl)Nc1ccc(Cl)cc1", 90.8),
    ("CN1CSC(=S)N(Cc2ccccc2)C1", 96.8),
    ("O=C1C=Cc2ccccc2/C1=C/c1nc(-c2ccccc2)oc1O", 92.4),
    ("O=[N+]([O-])c1ccc2c(c1)Cc1ccccc1-2", 97.7),
]

API: value(readout=growth, system=SK-MEL-5 melanoma) for record S=C(S)OCN1CCOCC1 101

Also O=C(NOC(=O)c1ccccc1)c1ccccc1 , if possible. 105

Also CCOC(=O)C1=C(C(=O)c2ccccc2)C(c2cccc([N+](=O)[O-])c2)C(C(=O)c2ccccc2)=C(C(=O)OCC)N1 , if possible. 95.9

Also c1ccc2sc(SSN3CC4CCC(CC4)C3)nc2c1 , if possible. 97.9

Also CC(C)c1ccc(C(=O)OC2CCCC2)cc1 , if possible. 98.7

Also CCc1oc2ccccc2c1C(=O)c1cc(Br)c(O)c(Br)c1 , if possible. 46.1

Also CCCCCCC1N=C(N)N=C(N)N1c1cccc(Cl)c1 (configuration not stated) , if possible. 28.3
